System: Beet
measurement.notes: Phytotoxicity on various crops
Type: in vivo
Design: key: Symbol — indicates that no toxicity was observed
condition.parameters: 500 ppm sprayed; checked visually after 10 days
measured.attribute: Phytotoxicity: Beet

CCCSP(=S)(OC)Oc1ccc2c(c1)OC(C)=CC2(C)C (stereo not drawn) [Compound No. 9]    —
CCOP(=O)(Oc1ccc2c(c1)OC(C)=CC2(C)C)SC(C)C (stereo not drawn) [compound 14]    —
CCC(C)SP(=O)(OC)Oc1ccc2c(c1)OC(C)(C)C=C2C (stereo not drawn) [Compound No. 24]    —
CCOP(=O)(Oc1cccc2c1C(C)=CC(C)(C)O2)SC(C)CC (stereo not drawn) [compound 23]    —
CCCSP(=O)(OCC)Oc1ccc2c(c1)OC(C)(C)C=C2C (stereo not drawn) [Compound No. 20]    —
CCOP(=S)(Oc1cccc2c1C(C)=CC(C)(C)O2)SC(C)CC (stereo not drawn) [Compound No. 27]    —
CCCSP(=S)(OCC)Oc1cccc2c1C(C)=CC(C)(C)O2 (stereo not drawn) [Compound No. 26]    —
CCOP(=O)(Oc1ccc2c(c1)OC(CC)=C(C)C2(CC)CC)SC(C)CC (stereo not drawn) [Compound No. 19]    —

Next item in the queue.
query: Can you look up the measured Phytotoxicity: Beet of CCOP(=S)(Oc1ccc2c(c1)OC(C)=CC2(C)C)SCC (stereo not drawn) [compound 12] for me?
result: —

----------
System: tobacco cutworm
measurement.notes: Long-lasting insecticidal effect on tobacco cutworm (sprayed cabbage plantlet)
Format: in vivo, Prodenia litura
condition.parameters: Table 6; concentration 500 (unit not given); leaves cut on 5th day, mortality after 48 hours
measured.attribute: Percent Mortality After Application 5th Day (%)
Report the value in % with no unit label.

query: Can you look up the measured Percent Mortality After Application 5th Day of CCCSP(=O)(OCC)Oc1ccc2c(c1)OC(C)(C)C=C2C (stereo not shown) [Compound No. 20] for me?
result: 100

query: What about this compound? CCCSP(=O)(OCC)Oc1cccc2c1C(C)=CC(C)(C)O2 (stereo not shown) [Compound No. 22]
result: 100

query: What about this compound? CCCSP(=O)(OCC)Oc1ccc2c(c1)OC(C)CC2(C)C (stereo not shown) [compound 17]
result: 100

query: What about this compound? CCC(C)SP(=O)(OC)Oc1ccc2c(c1)OC(C)(C)C=C2C (stereo not shown) [Compound No. 24]
result: 93.3

Source: patent EP0054589B1
